assay: chemical genetic growth profiling, strain panel (AID 1159580);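 note: tested at 20 µM; growth read once vehicle control cultures reached saturation at 30 °C; 1 = growth at the plate median or of vehicle wells; lower values mean less growth of the strain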; settings: S. cerevisiae deletion strains, growth OD, locus YOR069W, strain VPS5, stronger effect = lower value
Out of some 5,500 compounds screened, about 2,000 (36%) were called active. Another 18% or so got no clear call; they are omitted. Some of the results follow.
assay-endpoint: normalized growth

### Prompt Query (compound): CN1CCc2cccc3c2C1Cc1ccc(O)c(O)c1-3 (stereo not drawn) ; field requested: normalized growth
### Response 1.01 (inactive)

### Prompt Query (compound): CC12CCCC(O)(C1)C1CC(C)(C)C1CC2 (stereo not drawn) ; field requested: normalized growth
### Response 1.01 (inactive)

### Prompt Query (compound): `COP(=S)(OC)Oc1ccc(SC)c(C)c1` ; field requested: normalized growth
### Response 1.01 (inactive)

----------
experiment: chemical genetic growth profiling, strain panel (AID 1159580); conditions: S. cerevisiae deletion strains, growth OD, locus YNL128W, strain TEP1, stronger effect = lower value
About 2,000 (36%) of roughly 5,500 compounds were called active. Inconclusive results (about 18%) are left out. The list shows a part of the results.
assay-endpoint: normalized growth
Please give the numeric answer without any surrounding text.

### Prompt Query (compound): Nc1nc(N)c2nc(CNc3ccc(C(=O)NC(CCC(=O)O)C(=O)O)cc3)cnc2n1 (centres undefined) ; field requested: normalized growth
### Response 1

### Prompt Query (compound): `S=c1[nH]c2ccccc2s1` ; field requested: normalized growth
### Response 1.02

### Prompt Query (compound): `CCCn1c(=O)c2[nH]c(-c3ccc(S(=O)(=O)O)cc3)nc2n(CCC)c1=O` ; field requested: normalized growth
### Response 1

### Prompt Query (compound): `CCn1cc(C(=O)O)c(=O)c2cc3c(cc21)OCO3` ; field requested: normalized growth
### Response 0.983

----------
Can you tell me normalized growth for the items I'm about to list?
test: chemical genetic growth profiling, strain panel (AID 1159580); conditions: S. cerevisiae deletion strains, growth OD, locus YAL040C, strain CLN3, stronger effect = lower value
Out of some 5,500 compounds screened, about 2,000 (36%) were called active. Roughly 18% stayed inconclusive and do not appear here. This is one part of the list.
Please give the numeric answer without any surrounding text.

### Prompt Query (compound): `COc1ccccc1NC(=O)Nc1nc(-c2cccnc2)nc2ccccc12` ; field requested: normalized growth
### Response 1.02

### Prompt Query (compound): CC(C)CC(NP(=O)(O)O[C@@H]1O[C@@H](C)[C@H](O)[C@@H](O)[C@H]1O)C(=O)NC(Cc1c[nH]c2ccccc12)C(=O)O (some centres undefined) ; field requested: normalized growth
### Response 1.01

### Prompt Query (compound): `O=C(c1ccc2c(c1)OCCO2)N1CCCCC1` ; field requested: normalized growth
### Response 0.989

### Prompt Query (compound): `CCN(CC)CCCCCCCCOC(=O)c1cc(OC)c(OC)c(OC)c1` ; field requested: normalized growth
### Response 1.01

### Prompt Query (compound): `O=C(O)CP(=O)(O)O` ; field requested: normalized growth
### Response 1

### Prompt Query (compound): NC(N)=NOCCC(N)C(=O)O (centres undefined) ; field requested: normalized growth
### Response 0.988

### Prompt Query (compound): COc1ccccc1OCC(O)CN1CCN(CC(=O)Nc2c(C)cccc2C)CC1 (centres undefined) ; field requested: normalized growth
### Response 1

### Prompt Query (compound): `COC(=O)[C@@H](N)CCCN=C(N)N[N+](=O)[O-]` ; field requested: normalized growth
### Response 1

### Prompt Query (compound): CCCN(CCC)C(=O)C(CCC(=O)O)NC(=O)c1ccccc1 (centres undefined) ; field requested: normalized growth
### Response 1

----------
assay: chemical genetic growth profiling, strain panel (AID 1159580); conditions: S. cerevisiae deletion strains, growth OD, locus YNL183C, strain NPR1, stronger effect = lower value
The whole screen tested about 5,500 compounds, of which about 2,000 (36%) were called active. Another 18% or so got no clear call; they are omitted. The list shows a part of the results.
// classify: if (normalized growth < 0.7) t else f

### Prompt Quick check: does `COc1cc(C(=O)Oc2c(Cl)cc(Cl)cc2C=Nc2cccc([N+](=O)[O-])c2)cc(OC)c1OC` have normalized growth under 0.7?
### Response t

### Prompt Quick check: does CCN(CC)CCOC(=O)C(Cc1cccc2ccccc12)CC1CCCO1 (stereo not given) have normalized growth under 0.7?
### Response f

### Prompt Quick check: does O=C(NCc1ccco1)c1csc(C2COc3ccccc3O2)n1 (stereo not given) have normalized growth under 0.7?
### Response f

### Prompt Quick check: does COc1ccc(C[C@H](N)C(=O)N[C@@H]2[C@@H](CO)OC(n3cnc4c(N(C)C)ncnc43)[C@@H]2O)cc1 (stereo not given in full) have normalized growth under 0.7?
### Response f

### Prompt Quick check: does `CCCCCc1ccc(S(=O)(=O)Nc2ccc3c(c2)C(=O)OC3)cc1` have normalized growth under 0.7?
### Response f

----------
experiment: chemical genetic growth profiling, strain panel (AID 1159580);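 note: tested at 20 µM; growth read once vehicle control cultures reached saturation at 30 °C; 1 = growth at the plate median or of vehicle wells; lower values mean less growth of the strain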; conditions: S. cerevisiae deletion strains, growth OD, locus YOR144C, strain elg1, stronger effect = lower value
Among all 5,500 compounds or so, about 2,000 (36%) were called active. Inconclusive results (about 18%) are left out. Some of the results follow.
assay-endpoint: normalized growth
Please give the numeric answer without any surrounding text.

### Prompt Query (compound): `COc1cc(C(=O)O)c(O)c2c1OCO2` ; field requested: normalized growth
### Response 0.997

### Prompt Query (compound): Cc1cccc(CN2CCN(C(c3ccccc3)c3ccc(Cl)cc3)CC2)c1 (stereo not drawn) ; field requested: normalized growth
### Response 0.973

### Prompt Query (compound): `C[C@](N)(Cc1ccc(O)c(O)c1)C(=O)O` ; field requested: normalized growth
### Response 1.01

### Prompt Query (compound): CN(C)CCCO[C@H]1[C@@H](C(O)CO)OC2OC(C)(C)O[C@@H]21 (stereo partly drawn) ; field requested: normalized growth
### Response 0.992

### Prompt Query (compound): CCCNC(C)C(=O)Nc1ccccc1C (stereo not drawn) ; field requested: normalized growth
### Response 0.977

### Prompt Query (compound): `CCn1cc(C(=O)O)c(=O)c2cnc(N3CCCC3)nc21` ; field requested: normalized growth
### Response 0.988

### Prompt Query (compound): CC(=O)N[C@@H]1[C@@H](C(O)[C@H](O)CO)O[C@](O)(C(=O)O)C[C@@H]1O (stereo partly drawn) ; field requested: normalized growth
### Response 0.994

### Prompt Query (compound): `NCc1ccc(S(N)(=O)=O)cc1` ; field requested: normalized growth
### Response 0.987

----------
Can you tell me normalized growth for the items I'm about to list?
assay: chemical genetic growth profiling, strain panel (AID 1159580);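 note: tested at 20 µM; growth read once vehicle control cultures reached saturation at 30 °C; 1 = growth at the plate median or of vehicle wells; lower values mean less growth of the strain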; settings: S. cerevisiae deletion strains, growth OD, locus YDR388W, stronger effect = lower value
The campaign covered roughly 5,500 compounds. About 2,000 (36%) were called active. Not shown: some 18% with an inconclusive outcome. This is one part of the list.
Please give the numeric answer without any surrounding text.

### Prompt Query (compound): `CC1=C(/C=C/C(C)=C/C=C/C(C)=C\C(=O)O)C(C)(C)CCC1` ; field requested: normalized growth
### Response 1

### Prompt Query (compound): O=C(O)CCCCCCCCCCCCC1C=CCC1 (stereo not drawn) ; field requested: normalized growth
### Response 0.976

### Prompt Query (compound): `CS(=O)(=O)OCCCCOS(C)(=O)=O` ; field requested: normalized growth
### Response 0.963

### Prompt Query (compound): `CC1=C(/C=C/C(C)=C/C=C/C(C)=C/CO)C(C)(C)CCC1` ; field requested: normalized growth
### Response 1

### Prompt Query (compound): CC(=O)O[C@H]1CC[C@@]2(C)C(=CCC3C2CC[C@]2(C)C(=O)CCC32)C1 (stereo partly drawn) ; field requested: normalized growth
### Response 1.02

### Prompt Query (compound): `CCOC(=O)C1=C[C@]2(CC)CCCN3CCc4c(n1c1ccccc41)[C@@H]32` ; field requested: normalized growth
### Response 0.97

### Prompt Query (compound): `O=C(O)CNCP(=O)(O)O` ; field requested: normalized growth
### Response 1.01

### Prompt Query (compound): NC(=O)c1cc[n+](CC2=C(C(=O)O)N3C(=O)C(NC(=O)C(c4ccccc4)S(=O)(=O)[O-])C3SC2)cc1 (stereo not drawn) ; field requested: normalized growth
### Response 0.992

----------
assay: chemical genetic growth profiling, strain panel (AID 1159580);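 note: tested at 20 µM; growth read once vehicle control cultures reached saturation at 30 °C; 1 = growth at the plate median or of vehicle wells; lower values mean less growth of the strain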; settings: S. cerevisiae deletion strains, growth OD, locus YJL092W, strain hpr5, stronger effect = lower value
About 2,000 (36%) of roughly 5,500 compounds were called active. Inconclusive results (about 18%) are left out. The list shows a part of the results.
Can you tell me normalized growth for the items I'm about to list?
Please give the numeric answer without any surrounding text.

### Prompt Query (compound): `CCOc1ccc2c(c1)C(C)=CC(C)(C)N2` ; field requested: normalized growth
### Response 0.986

### Prompt Query (compound): `CCn1cc(C(=O)O)c(=O)c2cnc(N3CCNCC3)nc21` ; field requested: normalized growth
### Response 1.02

### Prompt Query (compound): `CC[C@]12CCCN3CCc4c(n(c5ccccc45)C(=O)C1)[C@@H]32` ; field requested: normalized growth
### Response 0.997

### Prompt Query (compound): CCCN(CCC)C(=O)C(CCC(=O)O)NC(=O)c1ccccc1 (stereo not given) ; field requested: normalized growth
### Response 0.997

### Prompt Query (compound): `COS(C)(=O)=O` ; field requested: normalized growth
### Response 1

### Prompt Query (compound): `Nc1ccc(S(=O)(=O)Nc2nccs2)cc1` ; field requested: normalized growth
### Response 1.01

### Prompt Query (compound): Nc1c(Br)cc(Br)cc1CNC1CCC(O)CC1 (stereo not given) ; field requested: normalized growth
### Response 1.02

### Prompt Query (compound): `COc1cc(/C=C/C(=O)O)cc(OC)c1OC` ; field requested: normalized growth
### Response 0.991

### Prompt Query (compound): CC[C@@]1(C2O[C@@H](C3O[C@@](O)(CC)[C@H](C)C[C@@H]3C)C[C@@H]2C)CC[C@H]([C@]2(C)CCC3(C[C@H](O)[C@@H](C)[C@@H]([C@H](C)[C@@H](OC)[C@H](C)C(=O)O)O3)O2)O1 (stereo not given in full) ; field requested: normalized growth
### Response 0.973

### Prompt Query (compound): CC[C@]1(O)CC2CN(CCc3c([nH]c4ccccc34)[C@@](C(=O)OC)(c3cc4c(cc3OC)N(C=O)[C@H]3[C@@](O)(C(=O)OC)[C@H](OC(C)=O)[C@]5(CC)C=CCN6CC[C@]43[C@@H]65)C2)C1 (stereo not given in full) ; field requested: normalized growth
### Response 0.973

### Prompt Query (compound): CC12CCCC(O)(C1)C1CC(C)(C)C1CC2 (stereo not given) ; field requested: normalized growth
### Response 0.992

### Prompt Query (compound): `COc1cc(/C=C/C(=O)O)ccc1O` ; field requested: normalized growth
### Response 1.01

### Prompt Query (compound): `NCCCCN=C(N)N` ; field requested: normalized growth
### Response 1.02

### Prompt Query (compound): `CCn1cc(C(=O)O)c(=O)c2cnc(N3CCCC3)nc21` ; field requested: normalized growth
### Response 1.01

### Prompt Query (compound): `CC[C@]12CCCN3CCc4c(n(c5ccccc45)[C@](O)(C(=O)OC)C1)[C@@H]32` ; field requested: normalized growth
### Response 0.993

### Prompt Query (compound): `COc1ccc(-c2cc(C(F)F)nn2-c2ccc(S(N)(=O)=O)cc2)cc1F` ; field requested: normalized growth
### Response 1

### Prompt Query (compound): CC(Cc1ccc(O)c(O)c1)(NN)C(=O)O (stereo not given) ; field requested: normalized growth
### Response 0.997

### Prompt Query (compound): `O=C(O)CCC(=O)c1ccc(-c2ccccc2)cc1` ; field requested: normalized growth
### Response 0.998

### Prompt Query (compound): `S=c1[nH]c2ccccc2s1` ; field requested: normalized growth
### Response 0.984

### Prompt Query (compound): `CCOC(=O)c1ccc(N)cc1` ; field requested: normalized growth
### Response 1.02
